Test system: GH secretion
experimental protocol: Unanesthetized estradiol primed male rats, oral by gavage: GH
Type: in vivo, rat
condition label: estradiol implant male rats, oral by gavage, 1 hour
This listing pairs compounds with measured GH 1 H ID50.

C[C@@H](O)[C@@H]1NC(=O)[C@H](CCCCN)NC(=O)[C@@H](Cc2c[nH]c3ccccc23)NC(=O)[C@H](Cc2ccccc2)NC(=O)[C@@H](NC(=O)[C@H](N)Cc2ccccc2)CSSC[C@@H](C(=O)N[C@H](CO)[C@@H](C)O)NC1=O [Octreotride, Octreotide, reference compound] | 0.44 mg/kg

// next entry
Hello, I am looking for reported GH 1 H ID50 with GH secretion for Cc1cccc2c(CC3C(=O)N(CCCCCN)C(=O)N3S(=O)(=O)c3ccc(Oc4ccc(O)cc4)c(CN)c3)c[nH]c12 (centres unmarked) [Compound 45] . Could you help? 8 mg/kg
